# System: Pasteurella multocida
# Assay Details: Efficacy against Pasteurella multocida infections in mice when administered by injection
# Assay type: in vivo, Female Swiss mice
# Measurement Parameters: Pasteurella multocida, ip, 5.0 mg./kg. intraperitoneal; challenge dilution 10^-^5 subcutaneous; read-out: Survival ratio (mice surviving / mice tested) (converted)
Endpoint Name: responders at 5 mg/kg (%)
Give the value in % but do not write % after it.

Completed entries (count: 3):
Recorded responders at 5 mg/kg (molecule CC(=O)Nc1ncnc2c1c(-c1ncc([N+](=O)[O-])n1C)nn2C [Example 11] ): 0

Lookup result for Cn1c([N+](=O)[O-])cnc1-c1nn(C)c2nc(C(F)(F)F)[nH]c(=O)c12 [Example 12] ; measured responders at 5 mg/kg: 20

Form field responders at 5 mg/kg, entry CN(C)CCCn1cnc2c(c(-c3ncc([N+](=O)[O-])n3C)nn2C)c1=N [Example 10] : 80

Next:
Entry Cn1c([N+](=O)[O-])cnc1-c1nn(C)c2ncn(Cc3ccncc3)c(=N)c12 [Example 8d] — recorded responders at 5 mg/kg = 100

The value of responders at 5 mg/kg measured for the molecule CN(C)CCn1cnc2c(c(-c3ncc([N+](=O)[O-])n3C)nn2C)c1=N [Example 8] turned out to be 100

The recorded responders at 5 mg/kg for entry Cn1c([N+](=O)[O-])cnc1-c1nn(C)c2ncnc(NN)c12 [Example 9] equals 80

---

# System: Pasteurella multocida
# Assay Details: Efficacy against Pasteurella multocida infections in mice when administered by injection
# Assay type: in vivo, Female Swiss mice
# Measurement Parameters: Pasteurella multocida, ip, 5.0 mg./kg. intraperitoneal; challenge dilution 10^-^5 subcutaneous; read-out: Survival ratio (mice surviving / mice tested) (converted)
# Experimental: The efficacy of the novel compounds against Pasteurella multocida infections in mice when administered by injection was studied. Female Swiss mice weighing from 15 to about 20 g. were used. The test compound, 5.0 mg., was weighed out and dissolved in 0.5 ml. of dimethyl sulfoxide, and this solution was added to 9.5 ml. of sodium carboxymethylcellulose suspension. Groups of five mice each were injected intraperitoneally with 0.1 ml. each of the above-prepared test composition. […]
Endpoint Name: responders at 5 mg/kg (%)
Hi! Could you send only the number? It should be in %, unit omitted.

get_value(item= CCn1cnc2c(c(-c3ncc([N+](=O)[O-])n3C)nn2C)c1=N [Example 7] , readout=responders at 5 mg/kg) returns 70

Value of responders at 5 mg/kg reported for the compound CCN(CC)CCn1cnc2c(c(-c3ncc([N+](=O)[O-])n3C)nn2C)c1=N [Example 8a] is 20

The value of responders at 5 mg/kg measured for the compound Cn1nc(-c2ncc([N+](=O)[O-])n2C)c2c1NC(CCl)(OC(=O)CCl)NC2=O (stereo not drawn) [Example 3] turned out to be 20

Reported responders at 5 mg/kg ( Cc1nc2c(c(-c3ncc([N+](=O)[O-])n3C)nn2C)c(=O)[nH]1 [Example 13] ) = 50

***
Cn1c([N+](=O)[O-])cnc1-c1nn(C)c2ncnc(N)c12 [Example 4] has a reported responders at 5 mg/kg of 50

Please fill in: responders at 5 mg/kg reported for CCCn1cnc2c(c(-c3ncc([N+](=O)[O-])n3C)nn2C)c1=N [Example 5] = 60

Reported responders at 5 mg/kg of CCc1nc2c(c(-c3ncc([N+](=O)[O-])n3C)nn2C)c(=O)[nH]1 [Example 2] : 33.3

Entry CCOC(Cn1cnc2c(c(-c3ncc([N+](=O)[O-])n3C)nn2C)c1=N)OCC [Example 14] , responders at 5 mg/kg reported as 20

Entry Cn1c([N+](=O)[O-])cnc1-c1nn(C)c2ncnc(NCC(=O)O)c12 [Example 6] , responders at 5 mg/kg reported as 20

Hello, the source for this data is patent US4001230A, in case you need it.
